molecular target: T1, human SLITRK6 on cells (human, UniProt Q9H5Y7 27-841); experiment: flow cytometry on SCC-4 cells
T1 construct: whole, on cells
The following binders are listed with their measured EC50 values.

binder	valueUnits	EC50
hu1H2-13 (antibody, V domains shown) VH: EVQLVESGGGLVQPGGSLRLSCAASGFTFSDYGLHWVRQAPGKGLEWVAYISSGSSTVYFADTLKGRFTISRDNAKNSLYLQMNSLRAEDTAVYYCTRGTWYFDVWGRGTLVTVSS VL: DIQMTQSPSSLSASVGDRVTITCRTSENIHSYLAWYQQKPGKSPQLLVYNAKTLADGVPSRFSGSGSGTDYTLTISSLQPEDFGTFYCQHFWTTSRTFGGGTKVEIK	pM	230
phA290 (antibody, V domains shown, From phage display, then full-length construction; Only the variable regions are tied to the name) VH: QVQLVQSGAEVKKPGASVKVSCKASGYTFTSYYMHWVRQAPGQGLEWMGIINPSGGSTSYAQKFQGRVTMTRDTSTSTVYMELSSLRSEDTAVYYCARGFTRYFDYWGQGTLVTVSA VL: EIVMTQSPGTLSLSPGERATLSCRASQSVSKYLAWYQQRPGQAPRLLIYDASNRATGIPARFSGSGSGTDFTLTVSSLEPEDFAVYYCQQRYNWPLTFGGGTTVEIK	pM	150
